Source listed as ChEMBL document CHEMBL2029209.

# pIC50 per record follows
tested on: HCT-116; assay: Antiproliferative activity against human HCT116 cells; type: functional, cell-based
Friendly reminder that pIC50 comes from taking -log10 of the concentration in mol/L.

Below, each entry is followed by its recorded pIC50 result.
- compound: "CC(O)c1cc2cnc(Nc3cc(C(=O)N4CCN(C)CC4)n(C)c3)nc2n1C1CCCC1 (centres undefined)"
  pIC50: 7.10
- compound: "CN1CCN(C(=O)c2cc(Nc3ncc4cc(CO)n(C5CCCC5)c4n3)cn2C)CC1"
  pIC50: 6.89
- compound: "CN1CCN(C(=O)c2cc(Nc3ncc4cc(-c5ccnn5C)n(C5CCCC5)c4n3)cn2C)CC1"
  pIC50: 6.23

Here is the next item to consider.
For record "CN1CCN(C(=O)c2cc(Nc3ncc4ccn(C5CCCC5)c4n3)cn2C)CC1" the listed pIC50 is 6.54

###

The molecules listed here are annotated with their IC50.
biological target: Cyclin-dependent kinase 1 (Homo sapiens, UniProt P06493)
Sequence (P06493 whole entry): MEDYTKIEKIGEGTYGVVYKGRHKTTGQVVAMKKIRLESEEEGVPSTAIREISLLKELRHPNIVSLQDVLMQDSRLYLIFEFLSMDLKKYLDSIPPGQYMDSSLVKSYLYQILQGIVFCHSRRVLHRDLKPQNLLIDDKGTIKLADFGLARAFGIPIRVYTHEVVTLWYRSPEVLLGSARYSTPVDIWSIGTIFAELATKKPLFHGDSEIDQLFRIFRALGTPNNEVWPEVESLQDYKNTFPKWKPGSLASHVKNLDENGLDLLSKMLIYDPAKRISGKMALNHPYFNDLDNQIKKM
Return type: number; implicit unit nM.

// known answers, use as guide
- smiles_notation: "CN1CCN(C(=O)c2cc(Nc3ncc4cc(/C=N/O)n(C5CCCC5)c4n3)cn2C)CC1"
  unit_info: "nM"
  IC50: 3
- smiles_notation: "CN1CCN(C(=O)c2cc(Nc3ncc4cc(-c5cnco5)n(C5CCCC5)c4n3)cn2C)CC1"
  unit_info: "nM"
  IC50: 28
- smiles_notation: "CN1CCN(C(=O)c2cc(Nc3ncc4cc(-c5cnn(Cc6ccccc6)c5)n(C5CCCC5)c4n3)cn2C)CC1"
  unit_info: "nM"
  IC50: 2000
- smiles_notation: "CN1CCN(C(=O)c2cc(Nc3ncc4cc(C#N)n(C5CCCC5)c4n3)cn2C)CC1"
  unit_info: "nM"
  IC50: 6

The molecule "CN1CCN(C(=O)c2cc(Nc3ncc4cc(C(=O)O)n(C5CCCC5)c4n3)cn2C)CC1" , when measured on Cyclin-dependent kinase 1 (Homo sapiens, UniProt P06493), yielded IC50 of 10000

###

The following molecules have recorded IC50 on UniProt:Q96GD4.
Sequence (Q96GD4 whole entry): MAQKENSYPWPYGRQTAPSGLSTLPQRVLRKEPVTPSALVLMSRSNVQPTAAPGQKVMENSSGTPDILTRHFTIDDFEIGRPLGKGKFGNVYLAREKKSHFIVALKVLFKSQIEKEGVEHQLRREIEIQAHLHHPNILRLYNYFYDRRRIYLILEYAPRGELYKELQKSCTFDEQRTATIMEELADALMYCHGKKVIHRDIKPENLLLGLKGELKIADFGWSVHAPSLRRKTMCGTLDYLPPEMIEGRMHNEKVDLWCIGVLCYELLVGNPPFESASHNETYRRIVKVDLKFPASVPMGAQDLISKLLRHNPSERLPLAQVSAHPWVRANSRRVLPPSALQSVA
API: value field is a number in nM; no unit string.

Below, 5 molecules whose answers are already recorded.
- smiles_notation: "CN1CCN(C(=O)c2cc(Nc3ncc4cc(-c5cnn(Cc6ccccc6)c5)n(C5CCCC5)c4n3)cn2C)CC1"
  unit_info: "nM"
  IC50: 4
- smiles_notation: "CNCc1cc2cnc(Nc3cc(C(=O)N4CCN(C)CC4)n(C)c3)nc2n1C1CCCC1"
  unit_info: "nM"
  IC50: 60
- smiles_notation: "Cc1c(-c2cc3cnc(Nc4cc(C(=O)N5CCN(C)CC5)n(C)c4)nc3n2C2CCCC2)cnn1C"
  unit_info: "nM"
  IC50: 4
- smiles_notation: "CN1CCN(C(=O)c2cc(Nc3ncc4cc(-c5cnn(C)c5)n(C5CCCC5)c4n3)cn2C)CC1"
  unit_info: "nM"
  IC50: 4
- smiles_notation: "CN1CCN(C(=O)c2cc(Nc3ncc4cc(C#N)n(C5CCCC5)c4n3)cn2C)CC1"
  unit_info: "nM"
  IC50: 4

Now examine the next entry.
Given the molecule "CN1CCN(C(=O)c2cc(Nc3ncc4cc(CO)n(C5CCCC5)c4n3)cn2C)CC1" and test system UniProt:Q96GD4, the measured IC50 is 40
